Target: UniProt P21554
Sequence (P21554 whole entry): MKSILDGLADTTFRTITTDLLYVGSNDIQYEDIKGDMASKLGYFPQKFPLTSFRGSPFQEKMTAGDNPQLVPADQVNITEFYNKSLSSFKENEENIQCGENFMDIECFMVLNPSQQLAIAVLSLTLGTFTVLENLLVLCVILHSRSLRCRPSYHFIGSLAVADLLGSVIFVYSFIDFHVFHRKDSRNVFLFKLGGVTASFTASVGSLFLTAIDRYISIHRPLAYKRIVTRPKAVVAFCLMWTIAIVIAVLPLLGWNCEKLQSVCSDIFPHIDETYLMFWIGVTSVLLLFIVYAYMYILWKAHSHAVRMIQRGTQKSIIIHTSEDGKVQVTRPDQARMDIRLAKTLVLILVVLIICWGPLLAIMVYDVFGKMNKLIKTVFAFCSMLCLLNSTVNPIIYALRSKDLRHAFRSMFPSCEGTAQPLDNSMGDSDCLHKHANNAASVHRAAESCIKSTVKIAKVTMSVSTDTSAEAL
Test: cAMP assay, CHO cells expressing human CB1 receptors
Type: cell-based
Conditions: CHO cells expressing human CB1, cAMP; read-out: human CB1 EC50
Method: CHO cells expressing human CB1 or CB2 receptors are seeded 17-24 hours prior to the experiment 50.000 cells per well in a black 96 well plate with flat clear bottom (Corning Costar #3904) in DMEM (Invitrogen No. 31331), 1×HT supplement, with 10% fetal calf serum and incubated at 5% CO2 and 37° C. in a humidified incubator. […] The time-resolved energy transfer is measured by a TRF reader (Evotec Technologies GmbH), equipped with a ND:YAG laser as excitation source. […]
pEC50: −log10 of the molar value.
quantity: pEC50

**Query** What value of pEC50 has been recorded for this entry: COC(=O)[C@H](CC(C)C)NC(=O)c1ccc(C2CC2)c(OCC2CC2)n1 [Example 270]
**Result** 7.04

**Query** What value of pEC50 has been recorded for this entry: COCCOc1nc(C(=O)N[C@@H](CC(C)C)C(N)=O)ccc1N1CC(F)(F)C1 [Example 158]
**Result** < 5.00

**Query** What value of pEC50 has been recorded for this entry: NC(=O)C1(NC(=O)c2ccc(C3CC3)c(OCC3CC3)n2)CCOCC1 [Example 180]
**Result** < 5.00

**Query** What value of pEC50 has been recorded for this entry: Cc1nc(C(C)(C)NC(=O)c2ccc(N3CCC34COC4)c(OCC3CC3)n2)no1 [Example 235]
**Result** < 5.00

====

For each entry below, report its pEC50 value.
Biological target: human CB2 receptors (Homo sapiens (Human))
Sequence (P34972 whole entry): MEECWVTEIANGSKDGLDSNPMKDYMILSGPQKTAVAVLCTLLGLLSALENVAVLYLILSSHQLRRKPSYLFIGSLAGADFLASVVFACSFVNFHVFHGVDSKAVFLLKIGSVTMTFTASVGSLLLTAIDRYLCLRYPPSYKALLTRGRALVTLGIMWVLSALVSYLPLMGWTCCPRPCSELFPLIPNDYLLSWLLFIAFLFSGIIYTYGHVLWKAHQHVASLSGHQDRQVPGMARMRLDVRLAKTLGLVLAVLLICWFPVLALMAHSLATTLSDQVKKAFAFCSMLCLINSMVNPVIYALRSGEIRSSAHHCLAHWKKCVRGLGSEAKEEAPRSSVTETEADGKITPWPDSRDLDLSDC
Assay: cAMP assay, CHO cells expressing human CB2 receptors
Format: cell-based
Conditions: CHO cells expressing human CB2, cAMP; read-out: human CB2 EC50
Scale: negative log10 of molar concentration, which is what pEC50 denotes.

**Query** What value of pEC50 has been recorded for this entry: Cc1nc([C@H](CC(C)C)NC(=O)c2ccc(C3CC3)c(OCC3CC3)n2)no1 [Example 242]
**Result** 8.92

**Query** What value of pEC50 has been recorded for this entry: CCC(CC)(NC(=O)c1ccc(C2CC2)c(OCC(F)(F)C(F)(F)F)n1)C(=O)NC [Example 298]
**Result** 7.85

**Query** What value of pEC50 has been recorded for this entry: O=C(NN1CCCOC1=O)c1ccc(C2CC2)c(OCC2CC2)n1 [Example 371]
**Result** 6.36

**Query** What value of pEC50 has been recorded for this entry: CC(C)(CCN1CCOCC1)NC(=O)c1ccc(C2CC2)c(OCC2CC2)n1 [Example 154]
**Result** 6.82

**Query** What value of pEC50 has been recorded for this entry: O=C(NC1CCCCC1)c1cccc(-c2cccc(Cl)c2)n1 [Example 18]
**Result** 7.01

**Query** What value of pEC50 has been recorded for this entry: NC(=O)[C@H](CC1CC1)NC(=O)c1ccc(C2CCCC2)c(OCC2CC2)n1 [Example 107]
**Result** 7.97

**Query** What value of pEC50 has been recorded for this entry: Cc1nc([C@H](CC2CC2)NC(=O)c2cccc(-c3cccc(F)c3)n2)no1 [Example 347]
**Result** 7.30

**Query** What value of pEC50 has been recorded for this entry: Cc1nc(C(NC(=O)c2cccc(-c3ccc(F)c(Cl)c3)n2)C2CC2)no1 (racemic) [Example 232]
**Result** 7.82
